Data credit: paper PMC10448178

# test_system: AhrC (Bacillus subtilis) (UniProt P17893)
# Sequence: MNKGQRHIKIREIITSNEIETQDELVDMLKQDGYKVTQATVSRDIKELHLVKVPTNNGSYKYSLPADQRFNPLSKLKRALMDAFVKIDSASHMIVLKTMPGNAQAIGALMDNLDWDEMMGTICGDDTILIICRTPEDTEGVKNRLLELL
# protocol_description: EMSA
# measurement_parameters: 10 mM Tris-HCl pH 7.5, 43 mM NaCl, 1 mM MnCl2, 1 mM DTT, 5% glycerol, 1 ug poly[dI-dC] per 14 ul, 23 C 15 min; 5% PAGE in 40 mM Tris-acetate at 4 C
test_readout: binding

biopolymer_sequence	test_readout	measurement
GCGCTTTCAGCGAATGTGTGGAAAAAATGTTTCGTTTTTTATTCGCTGTGTGATTTTGCGTAATATTTACAATTCGATAGAATGCGAGAAGCACTGGTGTCCTTGGGTTTGATGGGATTTTTGGCGGAGCAAATAAATTGGATGAGAGAAAAAGTGTTCCTTCGTCACTATTTTTCTGTGGCGGGTGAATCATGTTTCTGTAGACCCACTGCGGATCAGCTTTGTAAGATAATAATAGGAAAATGTGAGCGAGAGGAGGTTTTGTATGGAGAGATATGATGAACTG (double strand) [PmneS]	binding	binds
CCGAAGCTTTCTCCTAAATCACAGTTTAAATCAATCTGAAACACAGAATCCCTCCTGCCAAAGCAAACGATATGCTTTATGTCATTTATTGTCCCGAAATTCGGAACGACTATTCCGAATTTTTGAACTTTATTTCATTATAAGTGAATCATATCAGTTTGTGAAATACTTTTGTCAGAAAACCTACCATGGTCCCAGAATAAAACCTGCCAAACTAAAGAATTCGAT (double strand) [PpxpA probe 3]	binding	binds more weakly
TTTAGTTTGGCAGGTTTTATTCTGGGACCATGGTAGGTTTTCTGACAAAAGTATTTCACAAACTGATATGATTCACTTATAATGAAATAAAGTTCAAAAATTCGGAAGCTTCCG (double strand) [PpxpA probe 5]	binding	binds more weakly
CCGAAGCTTTCTCCTAAATCACAGTTTAAATCAATCTGAAACACAGAATCCCTCCTGCCAAAGCAAACGATATGCTTTATGTCATTTATTGTCCCGAAATTCGGAACGACTATTCCGAATTTTTGAACTTTATTTCATTATAAGTGAATCATATCAGTTTGTGAAATACTTTTGTCAGAAAACCTACCATGGTCCCAGAATAAAACCTGCCAAACTAAAAAAGAGAGTCCATCTTAGGACTCTGAATTCGAT (double strand) [PpxpA probe 2]	binding	binds
